B1: NET1 (parent)
chain: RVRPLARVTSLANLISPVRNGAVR

- Variants of: B1
- ASSAY_INFO: protein stability index of a GFP-peptide fusion (GPS, HEK-293T) (PSI 1-6); higher = more stable;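 further: lentivirally expressed fusions sorted by FACS into six bins by GFP to DsRed ratio, PSI derived from sequencing read proportions per bin multiplied by bin number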
- RUN_CONDITIONS: c terminus: a fixed tail appended
We begin with a simple list: items and their reported protein stability index.

Use these answered entries as a reference point.
{"ENTRY_SEQUENCE": "RVRPLARVTSLANLISPVRNGAFR [V23F]", "REPORTED_MEASUREMENT": 2.26}
{"ENTRY_SEQUENCE": "RVRPLARVTSLANLISPVRKGAVR [N20K]", "REPORTED_MEASUREMENT": 2.49}
{"ENTRY_SEQUENCE": "RVRPLARVTSLANLWSPVRNGAVR [I15W]", "REPORTED_MEASUREMENT": 2.47}
{"ENTRY_SEQUENCE": "RVRPLARDTSLANLISPVRNGAVR [V8D]", "REPORTED_MEASUREMENT": 3.63}
{"ENTRY_SEQUENCE": "RVRPLARVTSLMNLISPVRNGAVR [A12M]", "REPORTED_MEASUREMENT": 2.42}
{"ENTRY_SEQUENCE": "RVRPLARVTSLANLISKVRNGAVR [P17K]", "REPORTED_MEASUREMENT": 3.09}
{"ENTRY_SEQUENCE": "RVRPLACVTSLANLISPVRNGAVR [R7C]", "REPORTED_MEASUREMENT": 2.39}
{"ENTRY_SEQUENCE": "RVRPLARVTSLANLIVPVRNGAVR [S16V]", "REPORTED_MEASUREMENT": 2.99}

With those in mind, consider the next variant.
Lookup result for RVRPLARVPSLANLISPVRNGAVR [T9P] ; measured protein stability index: 2.74
